# ASSAY COMMENT: Intracellular ATP levels
# Assay type: cell-based, rat
# PROTOCOL CONDITIONS: neonatal rat cardiomyocytes; rat cardiomyocytes (CM), 24 HR exposure; read-out: ATP TC50

# MOLECULE, UNIT ABBREV, QUALIFIER OPERATOR, CC50 at 24 h
records = [
    ("CC[C@@]1(O)C(=O)OCc2c1cc1n(c2=O)Cc2cc3ccccc3nc2-1", "µM", ">", 300),
    ("COc1cccc2c1C(=O)c1c(O)c3c(c(O)c1C2=O)C[C@@](O)(C(=O)CO)C[C@@H]3O[C@H]1C[C@H](N)[C@H](O[C@@H]2CCCCO2)[C@H](C)O1", "µM", "=", 7),
]
